// provenance: PubChem BioAssay (Tox21)

experimentalTarget: Cytochrome P450 3A4 (Homo sapiens)
methodSummary: Cytochrome P450 Family 3 Subfamily A Member 4 (CYP3A4) small molecule antagonists: luciferase reporter qHTS assay (AID 1671201); further: on the % scale 0 is the no-effect control and ±100 the full control effect; nearly all actives have a fitted effect of over 50% in size
settings: P450-Glo CYP3A4 enzyme, luciferin luminescence, 1 h; series mostly up to 115 µM
Records with an inconclusive call do not appear. Calls of active or inactive are those of the source. The call rests on the fitted dose curve; in most records, active means well fitted inhibition curve with a large enough effect in the repeat runs; inconclusive means weak or mixed curves; inactive means no such curve, though single readings can be large or run the other way.
Please state which outcome applies, choosing from active, inactive

Solved cases below.
In [3]: df
Out[3]:
                                   compound     class
0       COC(=O)Nc1nc2ccc(Sc3ccccc3)cc2[nH]1  inactive
1                          CC(=O)CCc1ccccc1  inactive
2  C=C(C)C(=O)OCC(CC)(COC(=O)C(=C)C)COC(=O)C(=C)C  inactive
3                         Cc1cc(O)cc(C)c1Cl  inactive
4    C=C1C2CCC(C2)C1(C)C (stereo not drawn)  inactive
5                                  OC1CCCC1  inactive
6    O=C1O[C@H](CO)[C@@H](O)[C@H](O)[C@H]1O  inactive
7                   O=[N+]([O-])C(CO)(CO)CO  inactive

Turning to the following compound.
Hi team, can someone confirm the assay call for OCC1CCCO1 (stereo not drawn) ? inactive

* * *

methodSummary: qHTS assay to identify small molecule antagonists of the androgen receptor (AR) signaling pathway using the MDA cell line - cell viability counter screen (AID 743041; further: on the % scale 0 is the no-effect control and ±100 the full control effect; nearly all actives have a fitted effect of over 45% in size)
settings: MDA-kb2 viability, CellTiter-Fluor, 16 h, cells co-treated with R1881 androgen agonist; series mostly up to 70.3 µM
Records with an inconclusive call do not appear. Active and inactive are the calls of the source. The call rests on the fitted dose curve; in most records, active means well fitted cell-killing curve with a large enough effect in the repeat runs; inconclusive means weak or mixed curves, or effect the other way; inactive means flat fitted curve, though single readings scatter.
readout: outcome

In [3]: df
Out[3]:
                                   molecule  readout  measurement
0                     C=CC(=O)OCCCCCCCC(C)C  outcome     inactive
1  CC1CC(OC(=O)c2ccccc2O)CC(C)(C)C1 (stereo not drawn)  outcome     inactive
2       COC(=O)Nc1nc2ccc(Sc3ccccc3)cc2[nH]1  outcome     inactive

* * *

methodSummary: qHTS assay to identify small molecule agonists of the retinoic acid receptor (RAR) signaling pathway (AID 1159553); on activation: on the % scale 0 is the no-effect control and ±100 the full control effect
settings: C3RL4 RARE luciferase reporter, agonist, 6 h; series mostly up to 73.3 µM
Records with an inconclusive call do not appear. The source made the active and inactive calls. The call rests on the fitted dose curve; in most records, active means well fitted activation curve with a large enough effect in the repeat runs; inconclusive means weak or mixed curves, or effect the other way; inactive means no such curve, though single readings can be large or run the other way.
Please state which outcome applies, choosing from Yes = active, No = inactive

Solved cases below.
compound	class
NC(=O)/N=N/C(N)=O	No
CCCCCCC(C)(C)S	No
Cc1ccc(N)c(S(=O)(=O)O)c1	No
CN(C)c1ccc(C(=N)c2ccc(N(C)C)cc2)cc1	Yes
CCCCC/C=C\C/C=C\CCCCCCCC(=O)OC	No
CC(=O)[C@@]1(O)CC[C@H]2[C@@H]3CCC4=CC(=O)CC[C@]4(C)[C@H]3CC[C@@]21C	No

Hi team, can someone confirm the assay call for `CCc1ccc(O)cc1` ? No

Hi team, can someone confirm the assay call for `O=[N+]([O-])c1cc(N(CCO)CCO)ccc1NCCO` ? No

Hi team, can someone confirm the assay call for `CCCCOCCO` ? No

Hi team, can someone confirm the assay call for `OCC#CCO` ? No

Hi team, can someone confirm the assay call for `Oc1ccc2ccccc2c1N=Nc1ccccc1` ? Yes

Hi team, can someone confirm the assay call for `S=c1nc[nH]c2nc[nH]c12` ? No

Hi team, can someone confirm the assay call for `Clc1cc(Cl)c(Cl)cc1Cl` ? No

Hi team, can someone confirm the assay call for `OC[C@@H](O)[C@H](O)[C@H](O)[C@@H](O)CO` ? No

Hi team, can someone confirm the assay call for `C=C(C)C(=O)OCCCCCC` ? No

Hi team, can someone confirm the assay call for `NC(=O)NNc1ccccc1` ? No

Hi team, can someone confirm the assay call for `CCOC(=O)/C=C\C(=O)OCC` ? No

Hi team, can someone confirm the assay call for `COC(=O)c1ccc(C(=O)OC)cc1` ? No

Hi team, can someone confirm the assay call for CCCCC(CC)COC(C)=O (centres undefined) ? No

Hi team, can someone confirm the assay call for `CCOC(=O)[C@H](CCc1ccccc1)N[C@@H](C)C(=O)N1Cc2ccccc2C[C@H]1C(=O)O` ? No

Hi team, can someone confirm the assay call for OCC1CCCO1 (centres undefined) ? No

* * *

methodSummary: A CellTox Green Cytotoxicity Assay to monitor cytotoxicity in HEK293 cells - 0 hour (AID 1224869); further: on the % scale 0 is the no-effect control and ±100 the full control effect; nearly all actives have a fitted effect of over 50% in size
settings: CellTox Green fluorescence; series mostly up to 76.8 µM
Activity calls are given as the source filed them. The call rests on the fitted dose curve; in most records, active means well fitted activation curve with a large enough effect in the repeat runs; inconclusive means weak or mixed curves; inactive means flat fitted curve, though single readings scatter.
readout: outcome

Some compounds with known outcome results, for comparison:
compound	measurement
Cn1c([N+](=O)[O-])cnc1COC(N)=O	inactive
Clc1cc(Cl)c(Cl)cc1Cl	inactive
CCCCC(CC)COC(C)=O (stereo not given)	inactive
CCOC(=O)/C=C\C(=O)OCC	inactive
CC1COc2ccccc2N1C(=O)C(Cl)Cl (stereo not given)	inactive

I would be grateful if you could share the reported outcome for `O=C1N=C(O)CN1/N=C/c1ccc(-c2ccc([N+](=O)[O-])cc2)o1` . inactive

I would be grateful if you could share the reported outcome for `CC(=O)CCc1ccccc1` . inactive

* * *

experimentalTarget: Estrogen receptor (Homo sapiens)
methodSummary: qHTS assay to identify small molecule antagonists of the estrogen receptor alpha (ER-alpha) signaling pathway using the BG1 cell line in the presence of 0.1 nM 17-beta-estradiol (AID 1259244); further: on the % scale 0 is the no-effect control and ±100 the full control effect; nearly all actives have a fitted effect of over 50% in size
settings: VM7Luc4E2 (BG1) ERE-luciferase, antagonist mode, 0.1 nM E2, 22 h; series mostly up to 92.4 µM
Inconclusive results are not listed. The source made the active and inactive calls. Calls follow the shape of the dose curve; as a rule, active = well fitted inhibition curve with a large enough effect in the repeat runs; inconclusive = weak or mixed curves; inactive = no such curve, though single readings can be large or run the other way.
readout: outcome

>>> print(df.to_string())
                            recordsmiles                experimentaltarget  readout  measurement
0                O=[N+]([O-])C(CO)(CO)CO  Estrogen receptor (Homo sapiens)  outcome     inactive
1  O=C(c1cc(O)c(O)c(O)c1)c1ccc(O)c(O)c1O  Estrogen receptor (Homo sapiens)  outcome     inactive
2              CC(C)(CO)COC(=O)C(C)(C)CO  Estrogen receptor (Homo sapiens)  outcome     inactive

* * *

experimentalTarget: Cytochrome P450 2C9 (Homo sapiens)
methodSummary: Cytochrome P450 Family 2 Subfamily C Member 9 (CYP2C9) small molecule antagonists: luciferase reporter qHTS assay (AID 1671198); further: nearly all actives have a fitted effect of over 50% in size
settings: P450-Glo CYP2C9 enzyme assay, luciferin luminescence; series mostly up to 115 µM
Inconclusive results are not listed. Active and inactive are the calls of the source. Calls follow the shape of the dose curve; as a rule, active = well fitted inhibition curve with a large enough effect in the repeat runs; inconclusive = weak or mixed curves; inactive = no such curve, though single readings can be large or run the other way.
Please state which outcome applies, choosing from active, inactive

Solved cases below.
compound	class
Cc1ccc(C)c(C)c1	inactive
CCCCC(CC)COC(=O)/C=C\C(=O)OCC(CC)CCCC (configuration not stated)	active
COCC(C)O (configuration not stated)	inactive
c1ccc2[nH]cnc2c1	inactive
COCC(=O)O	inactive
O=C(O)c1ccc([N+](=O)[O-])cc1	inactive
CCC(C)C=O (configuration not stated)	inactive
CC(=O)Nc1ccc(C(=O)O)cc1	inactive
CN(C)c1ccc(C(=N)c2ccc(N(C)C)cc2)cc1	inactive
Cc1ccc(C(=O)O)o1	inactive

Hi team, can someone confirm the assay call for `S=c1nc[nH]c2nc[nH]c12` ? active

Hi team, can someone confirm the assay call for `O=[N+]([O-])C(CO)(CO)CO` ? active

Hi team, can someone confirm the assay call for `CCc1ccccc1O` ? active

Hi team, can someone confirm the assay call for `CCCCNC(N)=O` ? inactive

Hi team, can someone confirm the assay call for `CC(C)(N=C=O)c1cccc(C(C)(C)N=C=O)c1` ? inactive

Hi team, can someone confirm the assay call for CCCCC(CC)COC(C)=O (configuration not stated) ? inactive

* * *

methodSummary: qHTS assay to identify small molecule agonists of the estrogen related receptor (ERR) signaling pathway from Tox21 library (AID 1224849); further: on the % scale 0 is the no-effect control and ±100 the full control effect; nearly all actives have a fitted effect of over 15% in size
settings: ERR reporter cell line, ONE-Glo luciferase, 18 h; at 42.5 µM (top of the series)
Calls of active or inactive are those of the source. Calls come from the whole dose curve.
readout: activity change, positive = activation

Some molecules with known activity change, positive = activation results, for comparison:
In [3]: df
Out[3]:
                               recordsmiles                                 readout        measurement
0  CS(=O)(=O)Nc1ccc([N+](=O)[O-])cc1Oc1ccccc1  activity change, positive = activation  -19.6% (inactive)
1     O=C(c1cc(O)c(O)c(O)c1)c1ccc(O)c(O)c1O  activity change, positive = activation  -6.33% (inactive)
2    Cc1cc(O)c2c(c1)C(=O)c1cc(O)cc(O)c1C2=O  activity change, positive = activation     -4% (inactive)
3    O=C1O[C@H](CO)[C@@H](O)[C@H](O)[C@H]1O  activity change, positive = activation   3.62% (inactive)

Here is the next item to consider.
I would be grateful if you could share the reported activity change, positive = activation for `Nc1cc(-c2ccncc2)c[nH]c1=O` . -5.23% (inactive)
